Target: T1, purified CD160 (SPR analyte) (UniProt O95971 25-159, limits assumed)
T1 sequence (looked up): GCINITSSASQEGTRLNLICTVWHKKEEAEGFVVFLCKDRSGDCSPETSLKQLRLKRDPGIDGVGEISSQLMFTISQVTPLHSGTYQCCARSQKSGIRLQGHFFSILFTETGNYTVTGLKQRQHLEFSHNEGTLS
Experiment: SPR, Biacore T200, scFv captured on CM5 chip, CD160 as analyte, single-cycle kinetics, 1:1 Langmuir fit
RECORDED METRIC: log10 Kd (log10 of the value in nM)
Please keep in mind that the values are log10 of Kd expressed in nM.

BINDER | RECORDED METRIC | ASSAY RESULT
anti-CD160 scFv clone 6 (SC14) (scFv, Rat scFv, VH-linker-VL) scFv: EVQLVESGGGFVQPGRSLKLSCAASGFTFSNYAMAWVRQAPTKGLEWVASINSGGGDSYYRDSVKGRFTISRDNAKNTQYLQMDSLRSEDTATYYCATHNYGSTIFDYWGQGAMVTVSSGGGGSGGGGSGGGGSEIILTQSPTTMTASPGEKVTITCRASSSVSYMHWYQQKPGASPKPWIYETSKLASGVPDRFSGSGSGTSYSLTINNMEAEDAATYYCQQWNYPSMYTFGAGTKLELKR | log10 Kd | -0.27
anti-CD160 scFv clone 19 (scFv, Rat scFv, VH-linker-VL) scFv: EVKLVESGGGLVQPGRSLKLSCAASGFTFSNYGMAWVRQAPTKGLEWVATISNGGGNTYYRDSVKGRFTISRDNAKNTQYLQMDSLRSEDTATYYCVAHNYESTVFDYWGQGAMVTVSSGGGGSGGGGSGGGGSEIVLTQSPTPMTASPGEKVTITCRASSSVSYMHWYQQKPGASPKPWIYETSKLASGVPDRFSGSGSGTSYSLTINNMEAEDAATYYCQQWNYPSMYTFGAGTKLELKR | log10 Kd | 0.73
anti-CD160 scFv clone 5 (C10) (scFv, Rat scFv, VH-linker-VL; also called 010) scFv: QVQLKESGPGLVQPSETLSLTCTVSGFSLTNYGINWFRQPPGKGLEWMGTIWNDGGTDYNSALKSRLTISRDTSKSQVFLKMNSLQTEDTAIYFCARGMEAWGQGASVTVSSGGGGSGGGGSGGGGSDIQLTQSPSLLSASVGDRVTLSCKGSQNINNYLAWYQQKLGEAPKLLIYNTNSLQTGIPSRFSGSGSGTDYTLTISSLQPEDFATYFCLQHNSGYTFGAGTKLEIKR | log10 Kd | 1.26
anti-CD160 scFv clone 16 (scFv, Rat scFv, VH-linker-VL) scFv: QVNLQESGPGLVRPSETLSLTCTVSGFSLISYGVNWFRQPPGKGLEWMGTIWNDGGTDYNSALKSRLSISRDTSKSQVFLKMNSLQTEDTAIYFCARGFEHWGQGVMVTVSSGGGGSGGGGSGGGGSDIQMTQSPASLSASLGETVSIECLTSEDISNDSAWYQQKSGKSPQLLIYAASRLQDGVPSRFSGSGSGTRYSLKISGMQPEDEADYFCQQSYKYPLTFGSGTKLEIKR | log10 Kd | 0.94

Next binder, please.
Query: Field request: log10 Kd | item: anti-CD160 scFv clone 9 (PB6) (scFv, Rat scFv, VH-linker-VL) scFv: EVQLVESGGGLVQPGRSLKLSCAASGFTFSNYAMAWVRQAPTKGLEWVASISSGGGDTYYRDSVKGRFTISRDNSKNTQYLQMDSLRSEDTATYYCATHNYESTVLITWGQGASVTVSSGGGGSGGGGSGGGGSEIVLTQSPTTTAASPGERVTITCRASSSVSYMHWYQQKPGASPKPWIYETSKLASGVPDRFSGSGSGTSYSLTINNMEAEDAATYYCQQWNYPSMYTFGAGTKLEIKR
Reply: 0.71

Provenance of the data: patent US20240158500A1
